tested target: Peptide 1: Biotin-…-[Tyr(PC)]-acid
Sequence (peptide, as listed by the source): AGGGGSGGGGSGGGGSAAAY
test method notes: scFv ELISA
Reported OD450 values follow for various binders
quantity: OD450 (OD450)

INSERT INTO measurements (binder, quantity, measurement) VALUES
  ('PcOxP_DB04_D05 (scFv, V domains shown, scFv in periplasmic extract) VH: EVQLLESGGGLVQPGGSLRLSCAASGFTFSDYYMEWVRQAPGKGLEWVAASRNVANDYTTEYADSVKGRFTISRDNSKNTLYLQMNSLRAEDTAVYYCARDYYGSSYWYFDVWGQGTLVTVSS VL: DIVMTQSPDSLAVSLGERATINCTASTSLYSSKHKVHYLAWYQQKPGQPPKLLIYGASNRYIGVPDRFSGSGSGTDFTLTISSLQAEDVAVYYCAQFYSYPLTFGGGTKVEIK', 'OD450', 0.87),
  ('PcOxP_DB04_E06 (scFv, V domains shown, scFv in periplasmic extract) VH: EVQLLESGGGLVQPGGSLRLSCAASGFTGSDFYMEWVRQAPGKGLEWVAASRNKANDYTTEYADSVKGRFTISRDNSKNTLYLQMNSLRAEDTAVYYCARDYYGSPYWYFDVWGQGTLVTVSS VL: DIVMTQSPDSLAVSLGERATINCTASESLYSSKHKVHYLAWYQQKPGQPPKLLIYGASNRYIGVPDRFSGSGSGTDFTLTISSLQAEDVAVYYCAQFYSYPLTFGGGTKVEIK', 'OD450', 1.04),
  ('PcOxP_DB03_E08 (scFv, V domains shown, scFv in periplasmic extract) VH: EVQLLESGGGLVQPGGSLRLSCAASGFTFSSFYMEWVRQAPGKGLEWVAASRNAANDYTTEYADSVKGRFTISRDNSKNTLYLQMNSLRAEDTAVYYCARDYYGSSYWYFDLWGQGTLVTVSS VL: DIQMTQSPSSLSASVGDRVTITCTASESLYSSKHKVHYLAWYQQKPGKAPKLLIYGASNRYIGVPSRFSGSGSGTDFTLTISSLQPEDFATYYCAQFYFYPLTFGGGTKVEIK', 'OD450', 0.87);

Provenance of the data: patent US20250320312A1
